- Target System: HLA-DR7 (DRB1*0701), purified HLA class II molecule (human)
- Protocol: competition with 125I-labelled probe peptide, purified HLA-DR
Reported Property: relative binding ratio

[[record]]
binder = "TQLFEDNYALAVLDN (also called Her2/neu.105) [HER2/neu DR supermotif exemplary 15-mer TQLFEDNYALAVLDN (position 105)]"
reported_property = "relative binding ratio"
test_value = "0.016 ratio (IC50 standard / IC50 test)"

